test system: HEK293T (UBE3A T485A transfected, BAR Wnt reporter); test: Wnt reporter firefly/Renilla luciferase ratio relative to plate median (fold (linear ratio)); higher = more Wnt/beta-catenin reporter activation; conditions: concentration: 0.1 uM; 24 h
Over roughly 1,100 compounds, “Wnt reporter firefly/Renilla luciferase ratio relative to plate median” has its median near 1.1; the highest 2% begin near 1.6. The list comes from a sample in which the highest values are over-represented; it also holds close analogues and randomly drawn compounds.
Entry flag: true (1) if Wnt reporter firefly/Renilla luciferase ratio reaches 1; false (0) if it does not.

[
  {
    "compound": "COP(=O)(OC)SCn1c(=O)oc2cc(Cl)cnc21 [Azamethiphos]",
    "target": "HEK293T (UBE3A T485A transfected, BAR Wnt reporter)",
    "category.label": "true (1)"
  }
]

API: above_or_equal(metric=Wnt reporter firefly/Renilla luciferase ratio, cutoff=1) for item CCC(=NOC/C=C/Cl)C1=C(O)CC(C2CCOCC2)CC1=O (centres undefined) [Tepraloxydim]
false (0)

Form field: Wnt reporter firefly/Renilla luciferase ratio at least 1? Entry: COC(=O)c1ccccc1C(=O)OC [Dimethyl phthalate]
true (1)

API: above_or_equal(metric=Wnt reporter firefly/Renilla luciferase ratio, cutoff=1) for item Cc1ccc(N)c(N)c1 [3,4-Diaminotoluene]
true (1)

Tell me whether Wnt reporter firefly/Renilla luciferase ratio is at least 1 here: C[C@]12CCC(=O)C=C1CC[C@@H]1[C@@H]2CC[C@]2(C)C(=O)CC[C@@H]12 [4-Androstene-3,17-dione]
true (1)

Please check the record `O=S(=O)([O-])C(F)(F)C(F)(F)C(F)(F)C(F)(F)C(F)(F)C(F)(F)F.[K+]` and state if its Wnt reporter firefly/Renilla luciferase ratio is at or above 1.
true (1)

Say whether CCOC(=O)C(C)OC(=O)c1cc(Oc2ccc(C(F)(F)F)cc2Cl)ccc1[N+](=O)[O-] (centres undefined) [Lactofen] shows Wnt reporter firefly/Renilla luciferase ratio of 1 or more.
true (1)

Given the entry Cn1sc(Cl)cc1=O [5-Chloro-2-methyl-3(2H)-isothiazolone] , answer whether its Wnt reporter firefly/Renilla luciferase ratio meets or surpasses 1.
true (1)

Item `O=S(=O)([O-])C(F)(F)C(F)(F)C(F)(F)C(F)(F)F.[K+]` with Wnt reporter firefly/Renilla luciferase ratio of 1 or above?
true (1)

# bool: Wnt reporter firefly/Renilla luciferase ratio of CCOP(=S)(OCC)SCn1c(=O)oc2cc(Cl)ccc21 [Phosalone] >= 1
true (1)

# check: Wnt reporter firefly/Renilla luciferase ratio of `O=S(=O)([O-])C(F)(F)C(F)(F)C(F)(F)C(F)(F)C(F)(F)C(F)(F)C(F)(F)C(F)(F)F.[K+]` is greater than or equal to 1
true (1)

Record c1ccc(-c2ccccc2)cc1 [Biphenyl] ; criterion: Wnt reporter firefly/Renilla luciferase ratio no lower than 1. Met?
true (1)

* * *

tested on: HEK293T (UBE3A T485A transfected, BAR Wnt reporter); experiment: Wnt reporter firefly/Renilla luciferase ratio relative to plate median (fold (linear ratio)); higher = more Wnt/beta-catenin reporter activation; details: concentration: 0.01 uM; 24 h
Whole data set: some 1,100 compounds, median “Wnt reporter firefly/Renilla luciferase ratio relative to plate median” near 1.1, cut for the highest 2% near 1.6. The list comes from a sample in which the highest values are over-represented; it also holds close analogues and randomly drawn compounds.
Is Wnt reporter firefly/Renilla luciferase ratio at least 1? Then class 1. If not, class 0.

Look over these answered cases.
[
  {
    "compound": "COP(=O)(OC)O/C(C)=C/C(=O)N(C)C",
    "category.label": "class 1"
  },
  {
    "compound": "N#Cc1c(Cl)c(Cl)c(Cl)c(C#N)c1Cl",
    "category.label": "class 0"
  },
  {
    "compound": "CCCCC(CC)COC(=O)c1ccccc1C(=O)OCC(CC)CCCC (centres undefined) [Di(2-ethylhexyl) phthalate]",
    "category.label": "class 0"
  },
  {
    "compound": "COc1cc(OC)nc(NC(=O)[N-]S(=O)(=O)c2ncccc2OCC(F)(F)F)n1.[Na+] [Trifloxysulfuron-sodium]",
    "category.label": "class 1"
  },
  {
    "compound": "COc1cccc(NCC(F)Cn2c3ccc(Br)cc3c3cc(Br)ccc32)c1 (centres undefined)",
    "category.label": "class 0"
  },
  {
    "compound": "CCOC1Oc2ccc(OS(C)(=O)=O)cc2C1(C)C (centres undefined) [Ethofumesate]",
    "category.label": "class 1"
  },
  {
    "compound": "NC1=NC(O)C2C3OC4(O)OC(C(O)C2(N1)C4O)C3(O)CO (centres undefined)",
    "category.label": "class 1"
  },
  {
    "compound": "N#Cc1cc(Br)c(O)c(Br)c1",
    "category.label": "class 0"
  }
]

Could you please find out whether `O=[N+]([O-])c1cc(C(F)(F)F)c(Cl)c([N+](=O)[O-])c1Nc1ncc(C(F)(F)F)cc1Cl` has Wnt reporter firefly/Renilla luciferase ratio that meets 1 or exceeds it?
class 0

Check if Wnt reporter firefly/Renilla luciferase ratio >= 1 (inclusive). Item: O=C(O)CNCP(=O)(O)O [Glyphosate]
class 1

Please check the record `CCOc1nc(F)cc2nc(S(=O)(=O)Nc3c(Cl)cccc3Cl)nn12` and state if its Wnt reporter firefly/Renilla luciferase ratio is at or above 1.
class 1

Decide: is the reported value of Wnt reporter firefly/Renilla luciferase ratio for `CO/C=C(/C(=O)OC)c1ccccc1Oc1cc(Oc2ccccc2C#N)ncn1` equal to or greater than 1?
class 1

Answer whether Wnt reporter firefly/Renilla luciferase ratio of `O=P(O)(O)CCCl` is greater than or equal to 1.
class 0

Item CC(COc1ccc(Oc2ccccc2)cc1)Oc1ccccn1 (centres undefined) with Wnt reporter firefly/Renilla luciferase ratio of 1 or above?
class 1

Has `CS(=O)(=O)c1cc(C(F)(F)F)ccc1C(=O)c1cnoc1C1CC1` a recorded Wnt reporter firefly/Renilla luciferase ratio greater than or equal to 1?
class 1

In plain terms: is recorded Wnt reporter firefly/Renilla luciferase ratio at least 1 for CCCC(=NOCC)C1=C(O)CC(CC(C)SCC)CC1=O (centres undefined) ?
class 1

* * *

Would you mind telling me the reported Wnt reporter firefly/Renilla luciferase ratio of each entry?
system: HEK293T (UBE3A T485A transfected, BAR Wnt reporter); experiment: Wnt reporter firefly/Renilla luciferase ratio relative to plate median (fold (linear ratio)); higher = more Wnt/beta-catenin reporter activation; conditions: concentration: 1 uM; 24 h
Whole data set: some 1,100 compounds, median “Wnt reporter firefly/Renilla luciferase ratio relative to plate median” near 1.1, cut for the highest 2% near 1.6. Many of the other results were omitted from the sample, so the highest values are more common in it than they were.
Give bare numbers.

[
  {
    "molecule": "c1ccc2c(c1)oc1ccccc12 [Dibenzofuran]",
    "value": 0.95
  },
  {
    "molecule": "Cc1ccc(N)c(N)c1 [3,4-Diaminotoluene]",
    "value": 1.26
  },
  {
    "molecule": "CCCCCCCCCCCCCN1CC(C)OC(C)C1 (stereo not given) [Tridemorph]",
    "value": 1.23
  }
]

Here are 3 molecules. What values of Wnt reporter firefly/Renilla luciferase ratio were reported for them?
1. C=CC(N)=O [Acrylamide]
2. CCOc1cc(Oc2ccc(C(F)(F)F)cc2Cl)ccc1[N+](=O)[O-] [Oxyfluorfen]
3. CN1COCN(Cc2cnc(Cl)s2)C1=N[N+](=O)[O-] [Thiamethoxam]

1. 0.905
2. 0.917
3. 1.01

* * *

tested on: HEK293T (UBE3A T485A transfected, BAR Wnt reporter); assay: Wnt reporter firefly/Renilla luciferase ratio relative to plate median (fold (linear ratio)); higher = more Wnt/beta-catenin reporter activation; settings: concentration: 0.1 uM; 24 h
In all, about 1,100 compounds were measured (“Wnt reporter firefly/Renilla luciferase ratio relative to plate median”: median about 1.1, highest 2% from about 1.6 on). The sample as a whole holds a higher share of the highest values than the screen did.
So I've got a bunch of compounds here, and I need their Wnt reporter firefly/Renilla luciferase ratio values.
One number for each entry.

Before answering, review these 6 worked examples.
[
  {
    "compound": "CC1(C)C(C=C(Cl)Cl)C1C(=O)OC(C#N)c1cccc(Oc2ccccc2)c1 (stereo unspecified) [Cypermethrin]",
    "value": 1.14
  },
  {
    "compound": "CCNC(=O)NC(=O)/C(C#N)=N/OC [Cymoxanil]",
    "value": 1.34
  },
  {
    "compound": "Cc1cccc([N+](=O)[O-])c1C [1,2-Dimethyl-3-nitrobenzene]",
    "value": 0.993
  },
  {
    "compound": "CN(C)C(=O)Nc1ccc(Cl)cc1 [Monuron]",
    "value": 0.888
  },
  {
    "compound": "CCCCCCCCOC(=O)c1ccccc1C(=O)OCCCCCCCC [Dioctyl phthalate]",
    "value": 1.21
  },
  {
    "compound": "CCOP(=S)(OCC)Oc1cc(C)nc(C(C)C)n1 [Diazinon]",
    "value": 0.815
  }
]

Dear colleague, could you please provide Wnt reporter firefly/Renilla luciferase ratio for the compounds listed below?
1. C=CCc1ccc2c(c1)OCO2 [Safrole]
2. CCCN(CCOc1c(Cl)cc(Cl)cc1Cl)C(=O)n1ccnc1 [Prochloraz]
3. CCC(CC)Nc1c([N+](=O)[O-])cc(C)c(C)c1[N+](=O)[O-] [Pendimethalin]
4. Nc1nc(N)nc(NC2CC2)n1 [Cyromazine]
5. [Cl-].[Cl-].[Hg+2] [Mercuric chloride]
6. Oc1c(Cl)cc(Cl)cc1Cl [2,4,6-Trichlorophenol]
7. CC1(C)C(C=C(Cl)Cl)C1C(=O)OCc1cccc(Oc2ccccc2)c1 (stereo unspecified) [Permethrin]
8. CCCCOC(=O)c1ccccc1C(=O)OCCCC [Dibutyl phthalate]

1: 1.26; 2: 1.15; 3: 0.866; 4: 1.18; 5: 1.21; 6: 0.821; 7: 0.873; 8: 0.942

Fill in Wnt reporter firefly/Renilla luciferase ratio for each of the 7 compounds listed.
1. CCCCOC(=O)c1ccccc1C(=O)O [Monobutyl phthalate]
2. Cc1ccccc1O [o-Cresol]
3. CNC(=O)/C=C(\C)OP(=O)(OC)OC [Monocrotophos]
4. Clc1nc(Cl)nc(Nc2ccccc2Cl)n1 [Anilazine]
5. Clc1cccc(Cl)c1 [1,3-Dichlorobenzene]
6. Nc1ccc(Cl)cc1N [4-Chloro-1,2-diaminobenzene]
7. CCCCCCOC(=O)c1ccccc1C(=O)OCCCCCC [Dihexyl phthalate]

1. 1.12
2. 1.01
3. 1.1
4. 0.926
5. 1.15
6. 1.1
7. 1.05

Data origin, for the record: the supplement of paper PMC9254222
